The origin of these recorded values is PubChem BioAssay (NCATS).

- System: CP238
- Method Description: qHTS profiling for inhibitors of Plasmodium falciparum proliferation (AID 504749); also: nearly all actives have a fitted effect of over 60% in size
- Run Parameters: P. falciparum in erythrocytes, SYBR Green DNA, 72 h; series mostly up to 28.7 µM
Results filed as inconclusive are left out. Active and inactive are the calls of the source. Calls follow the shape of the dose curve; as a rule, active = well fitted inhibition curve with a large enough effect; inconclusive = small, poorly fitted or top-dose-only effect; inactive = flat fitted curve, though single readings scatter.
Give your call using only these classes: Yes for active, No for inactive

Worked examples, 2 molecules total:
>  <Molecule>
CCCSS/C(CCO)=C(/C)N(C=O)Cc1cnc(C)nc1N

>  <Assigned Class>
No

$$$$
>  <Molecule>
OCCOC[C@H]1O[C@H](OCCO)[C@H](OCCO)[C@@H](OCCO)[C@@H]1OCCO (tested in a mixture with another compound)

>  <Assigned Class>
No

$$$$

Query: Please indicate how the test categorized NC(CSSCC(N)C(=O)O)C(=O)O (stereo not given) .
Response: No

Query: I would be grateful if you could indicate the recorded call for CC(=O)NC[C@@H]1CN(c2ccc(N3CCOCC3)c(F)c2)C(=O)O1 .
Response: No

Query: Which outcome was assigned to CO[C@H]1C[C@@H]2CC[C@@H](C)[C@@](O)(O2)C(=O)C(=O)N2CCCC[C@H]2C(=O)O[C@H]([C@H](C)C[C@@H]2CC[C@@H](O)[C@H](OC)C2)CC(=O)[C@H](C)/C=C(\C)[C@@H](O)[C@@H](OC)C(=O)[C@H](C)C[C@H](C)/C=C/C=C/C=C/1C in this test?
Response: Yes
